MEASURED ON: T1, recombinant human TfR (r human TfR: Sino Biological Inc.) (human, UniProt P02786 89-760)
T1 construct: Bought product; also called r human TfR-ECD (Histag); hTfR; not shown: histidine tag attached to the N-terminus
ASSAY DETAILS: BLI (Octet RED96), His-tagged TfR ECD loaded on Ni-NTA sensor, antibody as analyte

BINDER | koff / s⁻¹
anti-hTfR antibody No. 1 (antibody, V domains shown, Mouse hybridoma antibody purified on Protein G; also called mouse anti-hTfR antibody No. 1; product of Clone 1 line) VH: EVQLQESGGGLVQPGGSLKLSCAASGLTFSNYGMSWIRQTPDKRLELVANINTNGGSTYYPDSVKGRFTISRDNAKNTLYLQMNSLKSEDTAIYYCTNNRYDEDYWGQGTSVTVSS VL: DIVLTQSSKFMSTSVGDRVSITCKASQDVNSAVAWFQQKPGQSPKLLIYWTSTRHTGVPDRFTGSGSGTVYTLTISSVQAEDLALYYCQQHYSTPRTFGGGTKLEIKR | 2.55e-06
